All values here come from FireProtDB (doi:10.1126/science.aai7825).

# Tm values compiled below
Settings: Escherichia coli (strain K12); pH 7.5; Thermal; Intensity; HEPES 20mM; transition: 2; whole UniProt chain shown
Experimental endpoint: Tm

>>> obs_value("Integration host factor subunit alpha wild type, P0A6X7 (protein) MALTKAEMSEYLFDKLGLSKRDAKELVELFFEEIRRALENGEQVKLSGFGNFDLRDKNQRPGRNPKTGEDIPITARRVVTFRPGQKLKSRVENASPKDE")
"44.6 °C"
>>> obs_value("Phosphoribosylglycinamide formyltransferase wild type, P08179 (protein) MNIVVLISGNGSNLQAIIDACKTNKIKGTVRAVFSNKADAFGLERARQAGIATHTLIASAFDSREAYDRELIHEIDMYAPDVVVLAGFMRILSPAFVSHYAGRLLNIHPSLLPKYPGLHTHRQALENGDEEHGTSVHFVTDELDGGPVILQAKVPVFAGDSEDDITARVQTQEHAIYPLVISWFADGRLKMHENAAWLDGQRLPPQGYAADE")
"43.5 °C"
>>> obs_value("NH(3)-dependent NAD(+) synthetase wild type, P18843 (protein) MTLQQQIIKALGAKPQINAEEEIRRSVDFLKSYLQTYPFIKSLVLGISGGQDSTLAGKLCQMAINELRLETGNESLQFIAVRLPYGVQADEQDCQDAIAFIQPDRVLTVNIKGAVLASEQALREAGIELSDFVRGNEKARERMKAQYSIAGMTSGVVVGTDHAAEAITGFFTKYGDGGTDINPLYRLNKRQGKQLLAALACPEHLYKKAPTADLEDDRPSLPDEVALGVTYDNIDDYLEGKNVPQQVARTIENWYLKTEHKRRPPITVFDDFWKK")
"45.1 °C"
